The entries below are paired with their reported melting point.

{"columns": ["Molecular String", "melting point"],
 "data": [
  ["C[C@@]12CC[C@H](O)C[C@H]1CC[C@@H]1[C@H]3CC(=O)C[C@@H]3CC[C@H]12", "174 to 177 °C"],
  ["C[C@]1(O)CC[C@]2(C)[C@H](CC[C@H]3[C@H]2CC[C@@]2(C)C(=O)CC[C@H]32)C1", "183 to 185 °C"],
  ["CO[C@H]1[C@H]2CC[C@@H]3[C@H]4CC(=O)C[C@]4(C)CC[C@H]3[C@]2(C)CC[C@@H]1O", "198 to 200 °C"],
  ["CO[C@@H]1C[C@@H]2[C@H]3C[C@H](OC)[C@@H]4C[C@@H](O)CC[C@@]4(C)[C@@H]3CC[C@@]2(C)C1", "127 to 129 °C"],
  ["C[C@@]12CC[C@H]3[C@@H]4CC[C@H](O)C[C@H]4CC[C@@H]3[C@H]1CC(=O)C2", "160 to 162 °C"],
  ["CC(=O)[C@@H]1C[C@@H]2[C@H]3CC[C@@H]4C[C@@H](O)CC[C@@]4(C)[C@@H]3CC[C@@]2(C)C1", "169 to 172 °C"]
]}

---

- Experimental System: rat α1β2γ2L type GABAA receptors expressed in Xenopus laevis oocytes (Rattus norvegicus, UniProt P18508+P62813+P63138, INS375LLRMFSFK)
- Construct: expressed in transfected cells; host or cells: Xenopus laevis oocytes
- Sequence (P62813 28-455, stated change not applied): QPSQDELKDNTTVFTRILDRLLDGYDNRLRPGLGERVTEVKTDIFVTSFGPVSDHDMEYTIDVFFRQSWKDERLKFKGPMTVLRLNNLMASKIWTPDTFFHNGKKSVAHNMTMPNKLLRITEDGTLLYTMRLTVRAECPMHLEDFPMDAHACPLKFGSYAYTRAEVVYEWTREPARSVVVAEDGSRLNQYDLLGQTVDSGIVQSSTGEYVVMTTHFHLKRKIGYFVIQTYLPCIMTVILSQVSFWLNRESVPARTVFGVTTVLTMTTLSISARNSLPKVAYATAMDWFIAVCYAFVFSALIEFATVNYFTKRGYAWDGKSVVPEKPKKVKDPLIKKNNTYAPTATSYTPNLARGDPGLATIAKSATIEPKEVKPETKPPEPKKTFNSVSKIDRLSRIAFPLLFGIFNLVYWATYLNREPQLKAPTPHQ
- Sequence (P63138 26-474, stated change not applied): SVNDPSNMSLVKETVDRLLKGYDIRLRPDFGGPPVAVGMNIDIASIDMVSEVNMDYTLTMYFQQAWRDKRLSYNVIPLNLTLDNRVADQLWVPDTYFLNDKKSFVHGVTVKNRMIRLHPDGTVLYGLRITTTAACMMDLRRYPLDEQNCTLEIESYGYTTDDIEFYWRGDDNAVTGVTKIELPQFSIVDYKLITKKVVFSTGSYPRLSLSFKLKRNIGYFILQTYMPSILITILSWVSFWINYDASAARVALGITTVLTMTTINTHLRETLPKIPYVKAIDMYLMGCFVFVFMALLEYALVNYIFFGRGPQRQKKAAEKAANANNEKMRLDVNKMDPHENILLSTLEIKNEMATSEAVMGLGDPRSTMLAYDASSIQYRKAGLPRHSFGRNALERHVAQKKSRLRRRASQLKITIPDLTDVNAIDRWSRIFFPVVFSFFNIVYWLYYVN
- Sequence (P18508 with tags, fused parts or gaps INS375LLRMFSFK): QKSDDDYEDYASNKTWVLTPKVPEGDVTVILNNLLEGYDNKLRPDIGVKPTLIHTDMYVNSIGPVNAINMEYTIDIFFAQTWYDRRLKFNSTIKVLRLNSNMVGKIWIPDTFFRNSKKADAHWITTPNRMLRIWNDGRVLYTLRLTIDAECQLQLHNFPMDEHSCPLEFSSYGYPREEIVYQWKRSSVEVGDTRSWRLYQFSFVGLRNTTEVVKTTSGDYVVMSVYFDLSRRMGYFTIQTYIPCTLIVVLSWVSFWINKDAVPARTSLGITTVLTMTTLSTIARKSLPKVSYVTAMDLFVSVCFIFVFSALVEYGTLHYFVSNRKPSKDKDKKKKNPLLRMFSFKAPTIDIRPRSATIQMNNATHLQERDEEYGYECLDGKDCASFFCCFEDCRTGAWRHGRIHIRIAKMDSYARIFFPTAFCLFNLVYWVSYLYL
- Measurement Protocol: Oocyte electrophysiology: potentiation of chloride currents mediated by 2 μM GABA, and direct gating
- Type: cell-based
- Applied Conditions: 1.0 μM compound; 2 μM GABA; ± SEM (N≥4)
Result Type: ratio of currents measured in the presence/absence of added compound, 1.0 μM

{"columns": ["Molecular String", "Assay Result"],
 "data": [
  ["C[C@@]12CC[C@H](O)C[C@@H]1CC[C@H]1[C@H]2CC[C@@]2(C)C=C(C#N)C[C@H]12", "1.98 ± 0.14"],
  ["C[C@@]12CC[C@H]3[C@@H]4CC[C@H](O)C[C@H]4CC[C@@H]3[C@H]1CCC2=O", "1.64 ± 0.11"],
  ["C[C@]1(O)CC[C@]2(C)[C@H](CC[C@H]3[C@H]2CC[C@@]2(C)C(=O)CC[C@H]32)C1", "3.31 ± 0.43"],
  ["C[C@@]12CC[C@@H]3[C@H](CC(=O)[C@@H]4C[C@@H](O)CC[C@@]34C)[C@H]1CC(=O)C2", "0.85 ± 0.03"],
  ["C[C@]1(O)CC[C@]2(C)[C@@H](CC[C@H]3[C@H]2CC[C@@]2(C)C(=O)CC[C@H]32)C1", "5.10 ± 0.64"],
  ["C[C@@]12CC[C@H]3[C@@H]4CC[C@H](O)C[C@@H]4CC[C@@H]3[C@H]1CC(=O)C2", "4.23 ± 0.24"]
]}

---

The entries below are paired with their reported IC50.
- Experimental System: picrotoxin binding site on GABAA receptors
- Measurement Protocol: [35S]-TBPS displacement (inhibition of [35S]-TBPS binding)
- Applied Conditions: non-competitive displacement of [35S]-TBPS; ± standard error of the mean

{"columns": ["Molecular String", "IC50"],
 "data": [
  ["C[C@@]12CC[C@@H]3[C@H](CC(=O)[C@@H]4C[C@@H](O)CC[C@@]34C)[C@H]1CC(=O)C2", "8950 nM"],
  ["CO[C@H]1[C@H]2CC[C@H]3[C@@H](CC[C@@]4(C)C(=O)CC[C@H]34)[C@]2(C)CC[C@@H]1O", "198 nM"],
  ["C[C@]1(O)CC[C@]2(C)[C@H](CC[C@H]3[C@H]2CC[C@@]2(C)C(=O)CC[C@H]32)C1", "185 nM"],
  ["CC(=O)[C@@H]1C[C@@H]2[C@H]3CC[C@@H]4C[C@@H](O)CC[C@@]4(C)[C@@H]3CC[C@@]2(C)C1", "184 nM"],
  ["C[C@@]12CC[C@@H]3[C@H](CC[C@H]4C[C@@H](O)CC[C@]43C)[C@H]1C[C@@H](C#N)C2", "22 nM"],
  ["CO[C@@H]1C[C@@H]2[C@H]3CC[C@@H]4C[C@@H](O)CC[C@@]4(C)[C@@H]3CC[C@@]2(C)C1", "92 nM"],
  ["C[C@@]12CC[C@@H]3[C@H](CC[C@@H]4C[C@@H](O)CC[C@]43C)[C@H]1CC(=CC#N)C2", "32 nM"],
  ["C[C@@]12CC[C@@H]3[C@H](CC[C@@H]4C[C@@H](O)CC[C@]43C)[C@H]1C[C@@H](C#N)C2", "29 nM"],
  ["C[C@]1(O)CC[C@]2(C)[C@@H](CC[C@H]3[C@H]2CC[C@@]2(C)C(=O)CC[C@H]32)C1", "290 nM"],
  ["CO[C@H]1CC[C@]2(C)CC[C@@H]3[C@H](CC[C@@H]4C[C@@H](O)CC[C@]43C)[C@@H]12", "19 nM"],
  ["CO[C@@H]1C[C@@H]2[C@H]3C[C@H](OC)[C@@H]4C[C@@H](O)CC[C@@]4(C)[C@@H]3CC[C@@]2(C)C1", "121 nM"],
  ["C[C@@]12CC[C@H]3[C@@H]4CC[C@H](O)C[C@@H]4CC[C@@H]3[C@H]1CC(=O)C2", "146 nM"],
  ["C[C@@]12CC[C@H](O)C[C@@H]1CC[C@H]1[C@H]2CC[C@@]2(C)C=C(C#N)C[C@H]12", "335 nM"]
]}
